Below, each entry is listed alongside its reported growth.
System: HCC-2998 colon
Experiment: NCI-60 one-dose screen, 48 h (100 = growth as untreated, 0 = no growth, -100 = all killed)
Conditions: 10 µM unless noted
Experimental: Growth inhibition of the HCC-2998 human tumor cell line is measured as a screen for anti-cancer activity. Cells are grown in 96 well plates and exposed to the test compound for 48 hours. Compounds are tested at a single concentration, which is 10^-5 M for most compounds. The reported endpoint is percent growth (GI% or GIPRCNT), where numbers from 0 - 100% represent growth inhibition, and numbers from -100% - 0 represent cell death. For example, a value of 40 represents 60% growth inhibition. […]
About 83,000 compounds went through this panel and 20% of them were active in at least one assay; those are over-represented in the sample as a whole.
Report the value in % with no unit label.

Sample records with growth:
COc1cc2oc(-c3cccc(C(=O)Nc4ccc(Cl)cc4)c3)cc(=O)c2c(O)c1OC	96.5
CCCCCOc1ccc(/C=N/Nc2cc(C)nc3ccc(Cl)cc23)cc1	-67.7
O=C(Nc1cccc(C2=NCCN2)c1)c1ccc(-c2ccc(C(=O)Nc3cccc(C4=NCCN4)c3)cc2)cc1	81.1
COc1ccc(OC)c(CCn2cncc2-c2c[nH]c3ccccc23)c1	91.8
C/C(=N\Nc1cc(C)nc2ccc(Br)cc12)c1ccc([N+](=O)[O-])cc1	55.8

Given the entry `O=c1ccc(-c2nc(N3CCOCC3)c3ccccc3n2)c[nH]1` , what growth was observed with HCC-2998 colon? 105

And for `COc1ccc(C/C(=C(\C)c2ccc(OCCN3CCCC3)cc2)c2ccc(OCCN3CCCC3)cc2)cc1` ? 68.9

And for `CSc1nc2sc3cccc(Cl)c3n2c(=N)c1C#N` ? 106

And for `COc1ccc(NC(=O)c2cc(NCc3cc(O)ccc3O)ccc2O)cc1` ? 107

And for `CCNC(=O)Oc1ccc(/C(=C(\C)c2ccccc2)c2ccc(OCCN3CCCCC3)cc2)cc1` ? 84.9

* * *

System: NCI-H23 lung
Assay: NCI-60 one-dose screen, 48 h (100 = growth as untreated, 0 = no growth, -100 = all killed)
Conditions: 10 µM unless noted
The panel holds about 83,000 compounds, 20% with a hit somewhere; the sample as a whole holds those more often.
So basically every entry gets a class from its growth, ranges being category 1: < 70%; category 2: ≥ 70% and < 90%; category 3: ≥ 90%

Field: example entries. Status: answers known.
COc1ccc(/C=C/c2nc(Nc3ccc(S(=O)(=O)NC(C)=O)cc3)c3ccccc3n2)cc1	category 2
COc1ccc(/C=C/c2nc(Nc3ccc(S(=O)(=O)Nc4cc(C)on4)cc3)c3ccccc3n2)cc1	category 2
COc1cc(/C=C\c2cc(OC)c(OC)c(OC)c2)cc(N)c1OC	category 2
COc1ccc(/C=C2\Oc3cc(OCCCCCN4CCCCC4)ccc3C2=O)cc1OC	category 2
COc1ccc(CNCCN2C(=O)c3ccc4c5c(ccc(c35)C2=O)C(=O)N(CCNCc2ccc(OC)c(OC)c2OC)C4=O)c(OC)c1OC	category 1
CCc1ccc(CNc2ccc(N3CCOCC3)c(C(=O)O)c2)cc1	category 3
Cc1c(C)c([N+](=O)[O-])c(C)c([N+](=O)[O-])c1C	category 3
CCNc1nc2cc(Nc3ccnc4cc(Cl)ccc34)ccc2o1	category 1

Which of the defined bands does the recorded growth of `O=C1Nc2cc(-c3ccc(NC(=O)c4ccccc4)cc3)ccc2/C1=C/c1ccc[nH]1` sit within? category 1

And for `C=C(CBr)[C@@H]1CC[C@]2(COC(C)=O)CC[C@]3(C)[C@H](CC[C@@H]4[C@@]5(C)CCCNC(C)(C)[C@@H]5CC[C@]43C)[C@@H]12` ? category 1

And for `OCc1cnccc1NCCCCOc1ccc(Oc2ccccc2)cc1` ? category 1

And for COc1cc(C2=NN(C(C)=O)C(c3cc(OC)c(OC)c(OC)c3)C2)ccc1O (stereo not drawn) ? category 1
